assay-conditions: in methanol, 303.15 K
recorded-endpoint: solubility (mole fraction)
Please reply with the number alone, leaving off any unit.

### Prompt Name the recorded solubility (mole fraction) for O=C1Cc2cc(F)ccc2N1 .
### Response 0.0594

----------
assay-conditions: in methanol, 323.15 K
recorded-endpoint: solubility (mole fraction)
Please reply with the number alone, leaving off any unit.

### Prompt Name the recorded solubility (mole fraction) for O=C1Cc2cc(F)ccc2N1 .
### Response 0.12

----------
assay-conditions: in THF, 313.15 K
recorded-endpoint: solubility (mole fraction)
Please reply with the number alone, leaving off any unit.

### Prompt Name the recorded solubility (mole fraction) for O=C1Cc2cc(F)ccc2N1 .
### Response 0.183

----------
assay-conditions: in n-hexane, 313.15 K
recorded-endpoint: solubility (mole fraction)

### Prompt Name the recorded solubility (mole fraction) for O=C1Cc2cc(F)ccc2N1 .
### Response 0.00196

----------
assay-conditions: in ethyl acetate, 288.15 K
recorded-endpoint: solubility (mole fraction)
Please reply with the number alone, leaving off any unit.

### Prompt Name the recorded solubility (mole fraction) for O=C1Cc2cc(F)ccc2N1 .
### Response 0.0185

----------
assay-conditions: in DMF, 303.15 K
recorded-endpoint: solubility (mole fraction)

### Prompt Name the recorded solubility (mole fraction) for O=C1Cc2cc(F)ccc2N1 .
### Response 0.309

----------
assay-conditions: in ethyl acetate, 318.15 K
recorded-endpoint: solubility (mole fraction)
Please reply with the number alone, leaving off any unit.

### Prompt Name the recorded solubility (mole fraction) for O=C1Cc2cc(F)ccc2N1 .
### Response 0.0394

----------
assay-conditions: in acetone, 298.15 K
recorded-endpoint: solubility (mole fraction)
Please reply with the number alone, leaving off any unit.

### Prompt Name the recorded solubility (mole fraction) for O=C1Cc2cc(F)ccc2N1 .
### Response 0.085

----------
assay-conditions: in n-hexane, 283.15 K
recorded-endpoint: solubility (mole fraction)

### Prompt Name the recorded solubility (mole fraction) for O=C1Cc2cc(F)ccc2N1 .
### Response 0.000492

----------
assay-conditions: in n-propanol, 283.15 K
recorded-endpoint: solubility (mole fraction)
Please reply with the number alone, leaving off any unit.

### Prompt Name the recorded solubility (mole fraction) for O=C1Cc2cc(F)ccc2N1 .
### Response 0.0336

----------
assay-conditions: in acetonitrile, 288.15 K
recorded-endpoint: solubility (mole fraction)
Please reply with the number alone, leaving off any unit.

### Prompt Name the recorded solubility (mole fraction) for O=C1Cc2cc(F)ccc2N1 .
### Response 0.0261

----------
assay-conditions: in acetonitrile, 283.15 K
recorded-endpoint: solubility (mole fraction)
Please reply with the number alone, leaving off any unit.

### Prompt Name the recorded solubility (mole fraction) for O=C1Cc2cc(F)ccc2N1 .
### Response 0.0227

----------
assay-conditions: in acetone, 293.15 K
recorded-endpoint: solubility (mole fraction)

### Prompt Name the recorded solubility (mole fraction) for O=C1Cc2cc(F)ccc2N1 .
### Response 0.0764

----------
assay-conditions: in isopropanol, 318.15 K
recorded-endpoint: solubility (mole fraction)
Please reply with the number alone, leaving off any unit.

### Prompt Name the recorded solubility (mole fraction) for O=C1Cc2cc(F)ccc2N1 .
### Response 0.0717

----------
assay-conditions: in THF, 298.15 K
recorded-endpoint: solubility (mole fraction)
Please reply with the number alone, leaving off any unit.

### Prompt Name the recorded solubility (mole fraction) for O=C1Cc2cc(F)ccc2N1 .
### Response 0.129

----------
assay-conditions: in n-propanol, 288.15 K
recorded-endpoint: solubility (mole fraction)

### Prompt Name the recorded solubility (mole fraction) for O=C1Cc2cc(F)ccc2N1 .
### Response 0.0388

----------
assay-conditions: in acetonitrile, 323.15 K
recorded-endpoint: solubility (mole fraction)
Please reply with the number alone, leaving off any unit.

### Prompt Name the recorded solubility (mole fraction) for O=C1Cc2cc(F)ccc2N1 .
### Response 0.0748

----------
assay-conditions: in n-propanol, 313.15 K
recorded-endpoint: solubility (mole fraction)

### Prompt Name the recorded solubility (mole fraction) for O=C1Cc2cc(F)ccc2N1 .
### Response 0.0798

----------
assay-conditions: in acetone, 283.15 K
recorded-endpoint: solubility (mole fraction)
Please reply with the number alone, leaving off any unit.

### Prompt Name the recorded solubility (mole fraction) for O=C1Cc2cc(F)ccc2N1 .
### Response 0.0618

----------
assay-conditions: in ethyl acetate, 278.15 K
recorded-endpoint: solubility (mole fraction)
Please reply with the number alone, leaving off any unit.

### Prompt Name the recorded solubility (mole fraction) for O=C1Cc2cc(F)ccc2N1 .
### Response 0.0149

----------
assay-conditions: in n-hexane, 308.15 K
recorded-endpoint: solubility (mole fraction)
Please reply with the number alone, leaving off any unit.

### Prompt Name the recorded solubility (mole fraction) for O=C1Cc2cc(F)ccc2N1 .
### Response 0.00153

----------
assay-conditions: in DMF, 308.15 K
recorded-endpoint: solubility (mole fraction)

### Prompt Name the recorded solubility (mole fraction) for O=C1Cc2cc(F)ccc2N1 .
### Response 0.331

----------
assay-conditions: in acetonitrile, 308.15 K
recorded-endpoint: solubility (mole fraction)
Please reply with the number alone, leaving off any unit.

### Prompt Name the recorded solubility (mole fraction) for O=C1Cc2cc(F)ccc2N1 .
### Response 0.0463

----------
assay-conditions: in DMF, 293.15 K
recorded-endpoint: solubility (mole fraction)

### Prompt Name the recorded solubility (mole fraction) for O=C1Cc2cc(F)ccc2N1 .
### Response 0.27

----------
assay-conditions: in isopropanol, 288.15 K
recorded-endpoint: solubility (mole fraction)
Please reply with the number alone, leaving off any unit.

### Prompt Name the recorded solubility (mole fraction) for O=C1Cc2cc(F)ccc2N1 .
### Response 0.0263

----------
assay-conditions: in acetonitrile, 293.15 K
recorded-endpoint: solubility (mole fraction)
Please reply with the number alone, leaving off any unit.

### Prompt Name the recorded solubility (mole fraction) for O=C1Cc2cc(F)ccc2N1 .
### Response 0.03

----------
assay-conditions: in n-propanol, 293.15 K
recorded-endpoint: solubility (mole fraction)
Please reply with the number alone, leaving off any unit.

### Prompt Name the recorded solubility (mole fraction) for O=C1Cc2cc(F)ccc2N1 .
### Response 0.0445

----------
assay-conditions: in n-propanol, 278.15 K
recorded-endpoint: solubility (mole fraction)
Please reply with the number alone, leaving off any unit.

### Prompt Name the recorded solubility (mole fraction) for O=C1Cc2cc(F)ccc2N1 .
### Response 0.0293

----------
assay-conditions: in ethyl acetate, 323.15 K
recorded-endpoint: solubility (mole fraction)
Please reply with the number alone, leaving off any unit.

### Prompt Name the recorded solubility (mole fraction) for O=C1Cc2cc(F)ccc2N1 .
### Response 0.0459

----------
assay-conditions: in THF, 323.15 K
recorded-endpoint: solubility (mole fraction)

### Prompt Name the recorded solubility (mole fraction) for O=C1Cc2cc(F)ccc2N1 .
### Response 0.237

----------
assay-conditions: in isopropanol, 308.15 K
recorded-endpoint: solubility (mole fraction)
Please reply with the number alone, leaving off any unit.

### Prompt Name the recorded solubility (mole fraction) for O=C1Cc2cc(F)ccc2N1 .
### Response 0.0506

----------
assay-conditions: in n-hexane, 278.15 K
recorded-endpoint: solubility (mole fraction)
Please reply with the number alone, leaving off any unit.

### Prompt Name the recorded solubility (mole fraction) for O=C1Cc2cc(F)ccc2N1 .
### Response 0.000387

----------
assay-conditions: in DMF, 318.15 K
recorded-endpoint: solubility (mole fraction)
Please reply with the number alone, leaving off any unit.

### Prompt Name the recorded solubility (mole fraction) for O=C1Cc2cc(F)ccc2N1 .
### Response 0.384

----------
assay-conditions: in n-propanol, 318.15 K
recorded-endpoint: solubility (mole fraction)
Please reply with the number alone, leaving off any unit.

### Prompt Name the recorded solubility (mole fraction) for O=C1Cc2cc(F)ccc2N1 .
### Response 0.093

----------
assay-conditions: in n-hexane, 318.15 K
recorded-endpoint: solubility (mole fraction)
Please reply with the number alone, leaving off any unit.

### Prompt Name the recorded solubility (mole fraction) for O=C1Cc2cc(F)ccc2N1 .
### Response 0.00247

----------
assay-conditions: in ethyl acetate, 313.15 K
recorded-endpoint: solubility (mole fraction)
Please reply with the number alone, leaving off any unit.

### Prompt Name the recorded solubility (mole fraction) for O=C1Cc2cc(F)ccc2N1 .
### Response 0.0343

----------
assay-conditions: in methanol, 318.15 K
recorded-endpoint: solubility (mole fraction)
Please reply with the number alone, leaving off any unit.

### Prompt Name the recorded solubility (mole fraction) for O=C1Cc2cc(F)ccc2N1 .
### Response 0.0998

----------
assay-conditions: in acetone, 278.15 K
recorded-endpoint: solubility (mole fraction)
Please reply with the number alone, leaving off any unit.

### Prompt Name the recorded solubility (mole fraction) for O=C1Cc2cc(F)ccc2N1 .
### Response 0.0551

----------
assay-conditions: in methanol, 293.15 K
recorded-endpoint: solubility (mole fraction)
Please reply with the number alone, leaving off any unit.

### Prompt Name the recorded solubility (mole fraction) for O=C1Cc2cc(F)ccc2N1 .
### Response 0.0422

----------
assay-conditions: in isopropanol, 313.15 K
recorded-endpoint: solubility (mole fraction)
Please reply with the number alone, leaving off any unit.

### Prompt Name the recorded solubility (mole fraction) for O=C1Cc2cc(F)ccc2N1 .
### Response 0.0601

----------
assay-conditions: in DMF, 288.15 K
recorded-endpoint: solubility (mole fraction)
Please reply with the number alone, leaving off any unit.

### Prompt Name the recorded solubility (mole fraction) for O=C1Cc2cc(F)ccc2N1 .
### Response 0.253

This collection of values is drawn from BigSolDB 2.1.
